Target: NMDA receptor subunits 1A/2C (Rattus norvegicus, UniProt P35439+Q00961)
Construct: expressed in transfected cells; host or cells: Xenopus laevis oocytes (cRNA injection; clones from Dr. P. H. Seeburg)
Sequence (Q00961 20-1237, other chains not shown): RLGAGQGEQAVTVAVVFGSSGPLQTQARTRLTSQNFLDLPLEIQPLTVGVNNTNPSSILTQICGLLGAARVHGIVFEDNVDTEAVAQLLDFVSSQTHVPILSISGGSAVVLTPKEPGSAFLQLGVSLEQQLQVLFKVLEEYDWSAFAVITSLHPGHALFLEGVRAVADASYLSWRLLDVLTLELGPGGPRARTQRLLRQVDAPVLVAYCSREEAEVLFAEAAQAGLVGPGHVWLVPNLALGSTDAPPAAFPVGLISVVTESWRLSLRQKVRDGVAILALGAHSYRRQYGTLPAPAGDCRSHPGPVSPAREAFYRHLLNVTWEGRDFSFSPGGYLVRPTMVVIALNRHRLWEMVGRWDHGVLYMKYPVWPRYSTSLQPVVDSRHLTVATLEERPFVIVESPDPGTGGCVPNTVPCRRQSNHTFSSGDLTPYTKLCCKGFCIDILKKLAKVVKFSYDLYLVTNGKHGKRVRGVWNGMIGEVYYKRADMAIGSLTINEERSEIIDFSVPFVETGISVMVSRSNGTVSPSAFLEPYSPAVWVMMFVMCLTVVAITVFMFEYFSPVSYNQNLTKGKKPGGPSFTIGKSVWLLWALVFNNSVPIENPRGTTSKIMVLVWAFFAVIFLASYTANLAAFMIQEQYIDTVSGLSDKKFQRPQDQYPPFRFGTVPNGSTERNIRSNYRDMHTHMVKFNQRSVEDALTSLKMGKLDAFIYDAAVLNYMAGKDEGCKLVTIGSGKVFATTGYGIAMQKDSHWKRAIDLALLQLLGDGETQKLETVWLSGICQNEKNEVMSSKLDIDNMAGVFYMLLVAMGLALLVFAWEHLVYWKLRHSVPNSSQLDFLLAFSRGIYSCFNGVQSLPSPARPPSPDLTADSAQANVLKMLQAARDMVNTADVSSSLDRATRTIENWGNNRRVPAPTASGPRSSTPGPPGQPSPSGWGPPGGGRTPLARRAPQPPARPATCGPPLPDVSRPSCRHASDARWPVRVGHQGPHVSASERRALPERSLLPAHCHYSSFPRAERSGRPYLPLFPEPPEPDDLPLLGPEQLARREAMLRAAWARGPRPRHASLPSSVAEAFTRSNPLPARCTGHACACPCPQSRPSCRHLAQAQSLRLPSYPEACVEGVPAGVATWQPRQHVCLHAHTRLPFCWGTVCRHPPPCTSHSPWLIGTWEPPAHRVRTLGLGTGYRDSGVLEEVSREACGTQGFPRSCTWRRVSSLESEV
Assay: Electrophysiological assay at NMDA receptor subunits expressed in Xenopus oocytes, 1A/2C
Format: cell-based
Details: Xenopus oocytes; glutamate 100 μm and glycine 1-100 μm; read-out: Subunits IC50, 1A/2C
Where a name gives a salt, the structure may show the parent alone.
measureName: pIC50
Convention used: pIC50 is expressed as -log10 of the molar concentration.

Param item = Oc1ccc(OCCN2CCC(Cc3ccc(F)cc3)CC2)cc1 [Ex. 102, hydrochloride] ; retrieve measured pIC50.
3.54

Param item = Cc1ccc(CC2CCN(CCOc3ccc4[nH]c(=S)[nH]c4c3)CC2)cc1 ; retrieve measured pIC50.
4.35

Param item = CC(C)(C)c1ccc(CC2CCN(CCOc3ccc(O)cc3)CC2)cc1 [Ex. 132, hydrochloride] ; retrieve measured pIC50.
3.64

Param item = Oc1ccc(OCCN2CCC(Cc3ccc4ccccc4c3)CC2)cc1 [Ex. 141, hydrochloride] ; retrieve measured pIC50.
4.05
